This collection of values is drawn from paper PMC5540273.

Please respond with reported %Inh for every item in the list.
# Test system: LIMK2;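 further: KINOMEscan kinase panel screen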
# ASSAY_CONDITIONS: concentration: 1 μM, replicates: in singlicate; n = 1
Return type: number; implicit unit %.

Determine its reported %Inh: Nc1nc(N)c2nc(-c3ccccc3)[nH]c2n1
3

Determine its reported %Inh: FC(F)(F)c1ccc(-c2ncn(CCCN3CCOCC3)c2-c2ccncc2)cc1
0

Determine its reported %Inh: O=C(Nc1ccc2c(c1)OCO2)NC1CCN(c2ccnc(NCc3ccc(F)cc3)n2)CC1
21

Determine its reported %Inh: COc1cc(Nc2nccc(N3CCC(NC(=O)C4COc5ccccc5O4)C3)n2)cc(OC)c1OC (stereo not shown)
4

Determine its reported %Inh: O=c1cc(N2CCOCC2)nc2n(Cc3ccc(F)c(Cl)c3)ccn12
6

Determine its reported %Inh: Cc1cccc(-c2nc(Nc3ccc4c(cnn4C)c3)c3ccccc3n2)n1
0

Determine its reported %Inh: COc1ccc(-c2cc3c(C)nc(N)nc3n([C@H]3CC[C@H](OCCO)CC3)c2=O)cn1
0

Determine its reported %Inh: O=C1NC(=O)C(c2ccccc2)=C1Nc1cccc(O)c1
0

Determine its reported %Inh: Nc1n[nH]c2ncc(-c3ccccc3)cc12
9

Determine its reported %Inh: O=C(NCc1cccs1)c1cc(C(=O)c2c(Cl)cccc2Cl)c[nH]1
0

Determine its reported %Inh: Cc1cc(Nc2nc(-c3cccc(C)n3)nc3ccccc23)ccn1
0

Determine its reported %Inh: CCS(=O)(=O)c1ccc(OC)c(Nc2ncc(-c3ccc(F)cc3)o2)c1.Cl
0

Determine its reported %Inh: Cl.NS(=O)(=O)c1cccc(Nc2cc(-c3ccc(F)cc3)n[nH]2)c1
0

Determine its reported %Inh: CCc1nc(-c2cccc(C)c2)c(-c2ccncc2)s1
0

Determine its reported %Inh: Nc1nccc2scc(-c3ccc4c(c3)CCN4C(=O)Cc3ccccc3)c12
14

Determine its reported %Inh: COc1cc2nccc(Nc3cccc(Oc4ccccc4)c3)c2cc1OC.Cl
0

Determine its reported %Inh: COC(=O)c1c(-c2ccccc2)c2cc(Br)ccc2c(=O)n1Cc1ccc(NC(=O)CCC(=O)O)cc1
0

Determine its reported %Inh: Nc1nc(-c2ccccc2F)c(-c2ccnc3ccccc23)s1
0

Determine its reported %Inh: COc1cccc(C2=C(Nc3cccc(C(=O)O)c3)C(=O)NC2=O)c1
10
